system: PXR:RXRa (NR concentration 270 nM, RXRa partner concentration 90 nM); test: PBM binding z-score (relative to random genomic background probes); higher = stronger binding; sequences stand for … in GC…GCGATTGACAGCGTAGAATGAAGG
Recorded PBM binding z-score by entry

[
  {
    "Query sequence": "CAAACTAGGTCACAGAGGTCGAAGTCCGTGCGTA",
    "PBM binding z-score": 4.41
  },
  {
    "Query sequence": "CAAACTAGGTCAAAGGTCAAAATCGAGCCAACCA",
    "PBM binding z-score": 6.99
  },
  {
    "Query sequence": "AATACAGGGTCCTCGTAGGCCAGAGTACGCACAG",
    "PBM binding z-score": -0.282
  },
  {
    "Query sequence": "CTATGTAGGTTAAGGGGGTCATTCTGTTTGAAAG",
    "PBM binding z-score": 5.44
  },
  {
    "Query sequence": "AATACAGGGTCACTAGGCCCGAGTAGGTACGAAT",
    "PBM binding z-score": 2.94
  },
  {
    "Query sequence": "CCGAGTAGGTTACGAGGGGGAATTCAGTGCGAAT",
    "PBM binding z-score": 1.55
  },
  {
    "Query sequence": "CTATGTAGGTTATGGGGGTCATTCAGTTTGAAAG",
    "PBM binding z-score": 6.22
  },
  {
    "Query sequence": "GCTAGTTGGTCAGTAAATGGTCACACACCGGTCG",
    "PBM binding z-score": -0.0876
  },
  {
    "Query sequence": "TCGAGTAGGTTACGGGGGCATTCATGGATGAAGA",
    "PBM binding z-score": 3.32
  },
  {
    "Query sequence": "TAGCCTAAGTCATGGGCCAGTATACCACGCGAAC",
    "PBM binding z-score": -0.259
  },
  {
    "Query sequence": "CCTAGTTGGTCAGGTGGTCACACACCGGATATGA",
    "PBM binding z-score": 0.174
  },
  {
    "Query sequence": "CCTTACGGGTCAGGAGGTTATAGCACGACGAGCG",
    "PBM binding z-score": 2.86
  }
]
